The origin of these recorded values is the supplement of paper PMC8728848.

# glycan array binding signal (z-score) annotations
Molecular target: Gal3S(b1-4)Glc
Test: glycan array binding signal (z-score within array); higher = stronger binding
Conditions: glycan notation: IUPAC condensed, linker removed
This excerpt belongs to a sample that is enriched for the strongest signals.
Give the figure by itself; no unit, no explanation.

Previously resolved entries follow.
{"BINDER": "CD34 (Homo sapiens), P28906 (protein) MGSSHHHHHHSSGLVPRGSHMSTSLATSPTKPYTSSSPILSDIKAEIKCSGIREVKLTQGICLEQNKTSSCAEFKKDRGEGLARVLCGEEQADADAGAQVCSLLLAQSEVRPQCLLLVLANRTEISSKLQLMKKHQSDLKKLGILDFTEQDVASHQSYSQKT", "glycan array binding signal (z-score)": 1.83}
{"BINDER": "MAA (Maackia amurensis), P0DKL3 (protein) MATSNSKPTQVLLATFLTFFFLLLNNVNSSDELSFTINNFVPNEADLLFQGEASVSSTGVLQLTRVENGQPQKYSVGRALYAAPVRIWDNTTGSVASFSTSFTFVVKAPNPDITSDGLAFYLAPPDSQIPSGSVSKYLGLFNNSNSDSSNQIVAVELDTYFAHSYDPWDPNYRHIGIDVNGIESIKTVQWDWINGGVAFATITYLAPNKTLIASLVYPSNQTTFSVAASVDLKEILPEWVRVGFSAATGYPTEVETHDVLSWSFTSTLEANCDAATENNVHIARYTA", "glycan array binding signal (z-score)": 5.2}

Consider the additional binder presented here.
Which measured glycan array binding signal (z-score) value corresponds to NKp30 (Homo sapiens), O14931 (protein) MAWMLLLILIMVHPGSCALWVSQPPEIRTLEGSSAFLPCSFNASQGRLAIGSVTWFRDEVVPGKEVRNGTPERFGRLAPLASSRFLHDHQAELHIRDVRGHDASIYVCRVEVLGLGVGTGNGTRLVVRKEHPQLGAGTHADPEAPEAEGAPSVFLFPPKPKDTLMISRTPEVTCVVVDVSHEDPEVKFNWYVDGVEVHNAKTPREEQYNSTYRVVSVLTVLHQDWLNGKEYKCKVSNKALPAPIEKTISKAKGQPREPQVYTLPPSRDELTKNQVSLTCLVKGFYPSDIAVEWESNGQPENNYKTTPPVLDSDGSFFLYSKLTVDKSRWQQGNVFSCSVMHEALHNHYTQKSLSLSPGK ?
-0.02
